target: ROCK2 protein (Homo sapiens)
Sequence (O75116 whole entry): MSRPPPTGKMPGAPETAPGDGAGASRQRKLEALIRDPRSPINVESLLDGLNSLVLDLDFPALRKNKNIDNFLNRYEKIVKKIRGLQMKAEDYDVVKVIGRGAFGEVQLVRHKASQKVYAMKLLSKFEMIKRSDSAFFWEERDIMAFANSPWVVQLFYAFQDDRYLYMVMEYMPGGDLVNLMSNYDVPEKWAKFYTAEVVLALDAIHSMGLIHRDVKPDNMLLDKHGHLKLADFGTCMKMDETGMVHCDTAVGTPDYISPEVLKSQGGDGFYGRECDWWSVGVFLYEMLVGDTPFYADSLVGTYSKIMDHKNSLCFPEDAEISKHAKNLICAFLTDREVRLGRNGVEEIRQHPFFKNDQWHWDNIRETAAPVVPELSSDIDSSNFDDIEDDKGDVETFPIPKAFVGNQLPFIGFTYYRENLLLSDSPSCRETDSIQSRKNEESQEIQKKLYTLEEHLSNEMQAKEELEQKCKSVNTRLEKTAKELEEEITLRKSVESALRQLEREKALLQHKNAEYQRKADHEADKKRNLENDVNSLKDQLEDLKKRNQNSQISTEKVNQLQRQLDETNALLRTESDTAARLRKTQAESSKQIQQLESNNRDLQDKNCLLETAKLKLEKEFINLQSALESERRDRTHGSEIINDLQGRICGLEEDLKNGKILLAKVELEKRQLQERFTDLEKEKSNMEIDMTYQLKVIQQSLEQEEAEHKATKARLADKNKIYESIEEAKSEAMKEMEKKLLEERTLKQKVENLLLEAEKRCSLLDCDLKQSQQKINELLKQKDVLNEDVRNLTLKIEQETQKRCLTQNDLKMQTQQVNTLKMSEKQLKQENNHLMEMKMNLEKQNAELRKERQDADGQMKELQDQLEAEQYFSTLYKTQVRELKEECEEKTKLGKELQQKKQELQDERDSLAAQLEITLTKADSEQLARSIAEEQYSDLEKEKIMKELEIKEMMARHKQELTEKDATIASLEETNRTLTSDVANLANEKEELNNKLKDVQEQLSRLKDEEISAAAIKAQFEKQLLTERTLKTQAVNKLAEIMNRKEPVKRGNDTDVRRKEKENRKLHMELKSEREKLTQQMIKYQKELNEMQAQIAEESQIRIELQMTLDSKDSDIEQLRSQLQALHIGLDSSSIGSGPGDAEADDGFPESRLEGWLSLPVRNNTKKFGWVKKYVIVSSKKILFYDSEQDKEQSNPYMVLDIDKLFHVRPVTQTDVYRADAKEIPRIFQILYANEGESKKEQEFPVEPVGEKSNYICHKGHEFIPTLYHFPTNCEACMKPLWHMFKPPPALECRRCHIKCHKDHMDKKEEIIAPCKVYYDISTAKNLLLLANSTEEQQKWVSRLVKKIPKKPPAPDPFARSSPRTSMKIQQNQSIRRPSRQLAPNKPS
method.notes: Degradation inducing activity of ROCK2 protein in HUVEC cells, Western blotting (Simple Western JESS)
Assay type: cell-based
Set-up: endogenous in cells; host or cells: HUVEC (ATCC CRL-1730)
condition.parameters: HUVEC, 24 h, degradation rate at 1 µM
Procedure: In vitro degradation inducing activity of ROCK2 protein of compounds of Examples was evaluated by Western Blotting (WB). By a test compound, 10 mM DMSO solution was prepared, which was used as a 10 µM test compound solution. […] The western blotting was performed using Simple Western JESS (protein simple). […] The standardized expression level data of the control (DMSO) was taken as 100%, and the degradation rate (%) was calculated from the average standardized expression level data of the test compound. […]
observable: inhibition at 1 µM

Example cases with answers are listed next.
- COC[C@H]1CN[C@H](C)CN1CC(=O)N1CC(C)(C)c2nc(CN(C)CCOCCNC[C@@H](C(=O)Nc3ccc4cnccc4c3)c3ccccc3)c(Cc3ccc(F)cc3)cc21: 25 to 50%
- COC[C@H]1CN[C@H](C)CN1CC(=O)N1CC(C)(C)c2nc(CN(C)CCOCCOCCOCCOCCOCCN[C@H](C)c3ccc(C(=O)Nc4ccncc4)cc3)c(Cc3ccc(F)cc3)cc21: 50 to 75%
- COC[C@H]1CN[C@H](C)CN1CC(=O)N1CC(C)(C)c2ncc(Cc3cccc(OCCOCCNC[C@@H](C(=O)Nc4ccc5cnccc5c4)c4ccccc4)c3)cc21: 25 to 50%

Lab note: each compound below needs its inhibition at 1 µM filled in.
1. COC[C@H]1CN[C@H](C)CN1CC(=O)N1CC(C)(C)c2ncc(Cc3cccc(OCCOCCOCCOCCOCCN[C@H](C)c4ccc(C(=O)Nc5ccncc5)cc4)c3)cc21
2. COC[C@H]1CN[C@H](C)CN1CC(=O)N1CC(C)(C)c2ncc(Cc3cccc(OCCOCCOCCOCCN[C@H](C)c4ccc(C(=O)Nc5ccncc5)cc4)c3)cc21

# output
1: 25 to 50%; 2: < 25%

src = patent EP4578856A1
